Entry source: PubChem BioAssay (NCI)

Test system: MOLT-4 leukemia
Experiment: NCI-60 one-dose screen, 48 h (100 = growth as untreated, 0 = no growth, -100 = all killed)
Details: 10 µM
Description: Growth inhibition of the MOLT-4 human tumor cell line is measured as a screen for anti-cancer activity. Cells are grown in 96 well plates and exposed to the test compound for 48 hours. Compounds are tested at a single concentration, which is 10^-5 M for most compounds. The reported endpoint is percent growth (GI% or GIPRCNT), where numbers from 0 - 100% represent growth inhibition, and numbers from -100% - 0 represent cell death. For example, a value of 40 represents 60% growth inhibition. […]
About 83,000 compounds went through this panel and 20% of them were active in at least one assay; those are over-represented in the sample as a whole.
quantity.measured: growth (%)
Give the number; % is assumed, so skip it.

Look over these answered cases.
{"compound": "Brc1ccc2c(c1)-c1ccccc1C1=NCCN12", "subject.of.test": "MOLT-4 leukemia", "growth, %": -7.7}
{"compound": "CCn1c(CSc2nc3ccccc3c(=O)n2CCc2ccccc2)n[nH]c1=S", "subject.of.test": "MOLT-4 leukemia", "growth, %": 71}
{"compound": "CC(C)(O)CCl", "subject.of.test": "MOLT-4 leukemia", "growth, %": 107}
{"compound": "Cc1c[nH]c(=O)n(Cc2nnc(CCC(=O)c3nc4ccccc4[nH]3)o2)c1=O", "subject.of.test": "MOLT-4 leukemia", "growth, %": 9.42}
{"compound": "CC(C)(C)c1ccc(S(=O)(=O)N[C@H]2CC[C@H]3[C@@H]4CCc5cc(OS(=O)(=O)O)ccc5[C@H]4CC[C@]23C)cc1", "subject.of.test": "MOLT-4 leukemia", "growth, %": 15.2}
{"compound": "C=CCN(CC=C)C(=O)[C@H](CC)[C@@H]1CC[C@@H](C)[C@@H]([C@H](C)[C@@H](O)[C@@H](C)C(=O)[C@H](CC)C2O[C@]3(C=CC(=O)[C@]4(CC[C@@](C)([C@H]5CC[C@](O)(CC)[C@H](C)O5)O4)O3)[C@H](C)C[C@@H]2C)O1 (some centres undefined)", "subject.of.test": "MOLT-4 leukemia", "growth, %": 28.8}

C#CC(C)(O)[C@@H]1C[C@H](CC(=O)O)C1(C)C (some centres undefined) has a reported growth of 114

Clc1ccc(/C=C2\CCCC3C2=Nc2ccccc2NC3c2ccc(Cl)cc2)cc1 (centres undefined) has a reported growth of 65.8

CCOC(=O)c1cc(C(=O)c2cc(OC)c(OC)c(OC)c2)n2ncc3ccccc3c12 has a reported growth of 62

---

test system: HCT-15 colon; assay: NCI-60 one-dose screen, 48 h (100 = growth as untreated, 0 = no growth, -100 = all killed); details: 10 µM
Compounds without any hit were thinned out: in the full panel of roughly 83,000, 20% have a hit.
growth values by entry
Give the number; % is assumed, so skip it.

Look over these answered cases.
{"compound.string": "O=C1NC(=O)c2c(CCCSc3nc4ccccc4c(=O)n3CCc3ccccc3)cccc21", "growth, %": 96}
{"compound.string": "O=C(N/N=C/c1cc([N+](=O)[O-])ccc1O)c1cccc2ccccc12", "growth, %": 22.5}
{"compound.string": "O=[N+]([O-])c1ccc(NCSc2ccc(Cl)cc2)cc1", "growth, %": 96.9}

# input for lookup
CNS(=O)(=O)Oc1ccc(-c2ccc3occc3c2)cc1 has a reported growth of 92.8

---

System: LOX IMVI melanoma
Test: NCI-60 one-dose screen, 48 h (100 = growth as untreated, 0 = no growth, -100 = all killed)
Details: 10 µM
Protocol: Growth inhibition of the LOX IMVI human tumor cell line is measured as a screen for anti-cancer activity. Cells are grown in 96 well plates and exposed to the test compound for 48 hours. Compounds are tested at a single concentration, which is 10^-5 M for most compounds. The reported endpoint is percent growth (GI% or GIPRCNT), where numbers from 0 - 100% represent growth inhibition, and numbers from -100% - 0 represent cell death. For example, a value of 40 represents 60% growth inhibition. […]
Compounds without any hit were thinned out: in the full panel of roughly 83,000, 20% have a hit. The source made the active and inactive calls. Rule for the calls: active = growth percent below 10; inactive = the rest.
quantity.measured: growth

Look over these answered cases.
{"compound": "COc1ccc(N=Nc2cc(OC)c(OC)c(OC)c2)cc1", "growth": "79% (inactive)"}
{"compound": "C#C[C@]1(O)CCC2C3CCc4cc(OC5CCCC5)ccc4C3CC[C@@]21C (stereo partly drawn)", "growth": "42% (inactive)"}
{"compound": "Cc1ccc(C(SCC(N)C(=O)O)(c2ccc(C)cc2)c2ccc(C)cc2)cc1 (stereo not drawn)", "growth": "40.6% (inactive)"}
{"compound": "CS(=O)(=O)c1nccc(-c2c(-c3ccc(OCCc4ccccc4)cc3)nc3sccn23)n1", "growth": "92.6% (inactive)"}
{"compound": "Cc1nn(-c2ccccc2)c2nc(Cl)c(C=O)c(-c3ccccc3)c12", "growth": "86.9% (inactive)"}
{"compound": "Cc1ccc(C(C)C)c(O)c1NC(=O)OC(C)C", "growth": "99.4% (inactive)"}

CC(C)(C)OC(=O)N1CCc2c(sc3ncnc(N/N=C/c4ccc(Br)cc4)c23)C1 has a reported growth of 54.8% (inactive)

CCNCC(=O)Nc1ccc(C(=O)OCC)cc1 has a reported growth of 95% (inactive)

---

test system: T-47D breast; test: NCI-60 one-dose screen, 48 h (100 = growth as untreated, 0 = no growth, -100 = all killed); details: 10 µM
The panel holds about 83,000 compounds, 20% with a hit somewhere; the sample as a whole holds those more often.
Give true (1) when the value for growth is at least 80%. Give false (0) when it is less.

Example entries begin here.
{"molecule": "COc1cc2c3c(n([C@H]4CCOC4)c(=O)c2cc1OC)-c1cc2c(cc1C3=O)OCO2", "discrete.label": "false (0)"}
{"molecule": "COc1ccc(/C=C2\\CCCC3C2=Nc2ccccc2NC3c2ccc(OC)cc2)cc1 (stereo not drawn)", "discrete.label": "true (1)"}
{"molecule": "O=C(CN(C1CCCCC1)C1CCCCC1)Nc1ccc(S(=O)(=O)c2ccc(NC(=O)CN(C3CCCCC3)C3CCCCC3)cc2)cc1", "discrete.label": "false (0)"}
{"molecule": "CCN(CC)CCCOc1cccc2c1C(=O)c1cccc(OCCCN(CC)CC)c1C2=O", "discrete.label": "false (0)"}

Continue with the molecule presented below.
Request: In plain terms: is recorded growth at least 80% for O=C1/C(=C/c2cccc(F)c2)Cc2ccccc21 ?
Response: true (1)

---

system: 786-0 renal; experiment: NCI-60 one-dose screen, 48 h; details: 10 µM
Compounds without any hit were thinned out: in the full panel of roughly 83,000, 20% have a hit. The source made the active and inactive calls. How the source made its calls: active means growth percent below 10; inactive means the rest.
Pick from active, inactive when you respond.

Example entries begin here.
{"compound.string": "Cc1ccc(C(C)C)c(O)c1NC(=O)OC(C)C", "discrete.label": "inactive"}
{"compound.string": "CSc1nc(S(C)(=O)=O)nc2[nH]c(=O)[nH]c12", "discrete.label": "inactive"}

Request: Returns: the outcome recorded for CS(=O)(=O)c1nccc(-c2c(-c3ccc(OCCc4ccccc4)cc3)nc3sccn23)n1 in this assay.
Response: inactive

Request: Returns: the outcome recorded for COc1cc(/C=C/c2cc(/C=C/c3ccc(O)c(OC)c3)nc(N)n2)ccc1O in this assay.
Response: active

Request: Returns: the outcome recorded for C[n+]1c2ccccc2nc2ccccc21 in this assay.
Response: inactive

Request: Returns: the outcome recorded for Nc1c(Br)cc(Br)c2c1[nH]c(=O)c1ccccc12 in this assay.
Response: inactive

---

growth values by entry
test system: MALME-3M melanoma; assay: NCI-60 one-dose screen, 48 h (100 = growth as untreated, 0 = no growth, -100 = all killed); settings: 10 µM
About 83,000 compounds went through this panel and 20% of them were active in at least one assay; those are over-represented in the sample as a whole.
Give the number; % is assumed, so skip it.

{"compound": "CN(C)CCOc1ccc(-c2nc3sccn3c2-c2ccnc(S(C)(=O)=O)n2)cc1", "subject.of.test": "MALME-3M melanoma", "growth [%]": 112}

Cc1c2c[n+](C(C)C)ccc2c(C)c2c1[nH]c1ccccc12 has a reported growth of -25.6

Cc1ccc(-n2nnnc2N)c(C)c1 has a reported growth of 119

O=C(CCCCC(=O)Oc1c(Cl)cc(Cl)cc1[N+](=O)[O-])Oc1c(Cl)cc(Cl)cc1[N+](=O)[O-] has a reported growth of 98.8

CC(=O)C1N=NCC1c1ccccc1 (stereo not given) has a reported growth of 95.2

---

test system: RXF 393 renal; assay: NCI-60 one-dose screen, 48 h (100 = growth as untreated, 0 = no growth, -100 = all killed); conditions: 10 µM
This is part of a sample that, as a whole, favours compounds with a hit. Of some 83,000 tested, about 20% had one in any assay.
growth values by entry
Give the number; % is assumed, so skip it.

Look over these answered cases.
{"compound": "C[C@@H](C[C@H](CCO)c1ccccc1)c1ccc2ccccc2c1", "measurement.units": "%", "growth": -87.4}
{"compound": "CC(C)N(CCOc1cccc(-c2nc3sccn3c2-c2ccnc(S(C)(=O)=O)n2)c1)C(C)C", "measurement.units": "%", "growth": 65.3}
{"compound": "C[n+]1c2ccccc2nc2ccccc21", "measurement.units": "%", "growth": 24.3}
{"compound": "COc1ccc(/C(C#N)=C/c2cccc(OC)c2OC)cc1", "measurement.units": "%", "growth": 85.7}
{"compound": "O=C(CCn1cnc2c(cc(-c3ccccc3)n2-c2ccccc2)c1=O)Nc1ccc(F)cc1", "measurement.units": "%", "growth": 1.78}

Cc1cn(-c2cccc(NC(=O)c3ccc(C)c(Nc4nccc(-c5cccnc5)n4)c3)c2)cn1 has a reported growth of -49.5

O=C(O)Cc1ccc(O)c(O)c1 has a reported growth of 94.2

O=[N+]([O-])c1cc(Cl)cc(Cl)c1O has a reported growth of 104

COc1cc(-c2nn(-c3cccc(NC(=O)CCN4CCN(Cc5ccccc5)CC4)c3)cc2-c2ccncc2)ccc1Cl has a reported growth of -50.6

COc1cc(NC(=O)Nc2cnc(Nc3ccc(N4CCOCC4)cc3)nc2Oc2cccc(OC)c2)cc(OC)c1 has a reported growth of -32.5

Nc1ccccc1NC(=O)c1ccc(CCCC(=O)Nc2ccc(C3CC3N)cc2)cc1 (stereo not drawn) has a reported growth of 20.8
